# EXPERIMENT_NOTES: chemical genetic growth profiling, strain panel (AID 1159580);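 note: tested at 20 µM; growth read once vehicle control cultures reached saturation at 30 °C; 1 = growth at the plate median or of vehicle wells; lower values mean less growth of the strain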
# MEASUREMENT_SETUP: S. cerevisiae deletion strains, growth OD, locus YEL037C, strain rad23, hits give low values
In all, about 5,500 compounds went through this assay and about 2,000 (36%) were called active. About 18% were inconclusive and are not listed. The list shows a part of the results.
OUTCOME_MEASURE: normalized growth
# output: bare number, no unit

Sample records with normalized growth:
>  <MOLECULE>
COc1ccc2c(c1OC)C(=O)OC2[C@H]1c2c(cc3c(c2OC)OCO3)CCN1C (stereo partly specified)

>  <VALUE_OBSERVED>
1

$$$$
>  <MOLECULE>
COc1ccc([C@H]2Oc3cc(OC)cc(OC)c3C[C@H]2O)cc1

>  <VALUE_OBSERVED>
0.989

$$$$
>  <MOLECULE>
OC(Cn1cncn1)(Cn1cncn1)c1ccc(F)cc1F

>  <VALUE_OBSERVED>
1

$$$$
>  <MOLECULE>
O=C1C=C2C=C[C@@H]3C[C@@]2(O1)[C@H]1CCCCN31

>  <VALUE_OBSERVED>
0.982

$$$$
>  <MOLECULE>
COc1ccc2c(c1)O[C@H]1c3ccc(OC)cc3OC[C@@H]21

>  <VALUE_OBSERVED>
1.02

$$$$

IN: normalized growth lookup needed for `CC(=O)N[C@@H](CS)C(=O)O` , thanks.
OUT: 1

IN: normalized growth lookup needed for CC(C(=O)O)c1ccc(C(=O)c2cccs2)cc1 (stereo unspecified) , thanks.
OUT: 1

IN: normalized growth lookup needed for `O=C(Cn1ccnc1[N+](=O)[O-])NCCO` , thanks.
OUT: 1.02

IN: normalized growth lookup needed for CC(C)C(C)/C=C/C(C)C1CCC2C3=CC=C4CC(O)CCC4(C)C3CCC21C (stereo unspecified) , thanks.
OUT: 0.989

IN: normalized growth lookup needed for C=C1C(=O)O[C@@H]2C3O[C@]3(C)CC/C=C(\C)CC[C@@H]12 (stereo partly specified) , thanks.
OUT: 0.992

IN: normalized growth lookup needed for `CN1C(C(=O)Nc2ccccn2)=C(O)c2ccccc2S1(=O)=O` , thanks.
OUT: 0.976

====

# EXPERIMENT_NOTES: chemical genetic growth profiling, strain panel (AID 1159580);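 note: tested at 20 µM; growth read once vehicle control cultures reached saturation at 30 °C; 1 = growth at the plate median or of vehicle wells; lower values mean less growth of the strain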
# MEASUREMENT_SETUP: S. cerevisiae deletion strains, growth OD, locus YIL066C, strain RNR3, hits give low values
Hit rate of the full screen: of about 5,500 compounds, about 2,000 (36%) were called active. Roughly 18% stayed inconclusive and do not appear here. The list shows a part of the results.
OUTCOME_MEASURE: normalized growth
# output: bare number, no unit

Sample records with normalized growth:
>  <COMPOUND>
CC[C@H](C)C(=O)O[C@H]1CCC=C2C=C[C@H](C)C(CCC3C[C@@H](O)CC(=O)O3)[C@H]21 (stereo partly drawn)

>  <normalized growth>
0.989

$$$$
>  <COMPOUND>
O=C(O)c1cc2cc(Cc3cccnc3)ccc2o1

>  <normalized growth>
1.01

$$$$
>  <COMPOUND>
Cc1cccc(C(=O)O)c1O

>  <normalized growth>
1.02

$$$$
>  <COMPOUND>
OC(Cn1cncn1)(Cn1cncn1)c1ccc(F)cc1F

>  <normalized growth>
1

$$$$
>  <COMPOUND>
OCc1ccccc1O

>  <normalized growth>
1.02

$$$$
>  <COMPOUND>
COc1cc2c(cc1OC)C1Cc3ccc(OC)c(OC)c3CN1CC2 (stereo not drawn)

>  <normalized growth>
1.02

$$$$
>  <COMPOUND>
COc1ccc([C@H]2Oc3cc(OC)cc(OC)c3C[C@H]2O)cc1

>  <normalized growth>
1.02

$$$$
>  <COMPOUND>
C=C1C(=O)OC2CC1C(OC(C)=O)C/C(C)=C/CC/C(C)=C/CC[C@]2(C)O (stereo partly drawn)

>  <normalized growth>
1.01

$$$$
>  <COMPOUND>
CN1C(C(=O)Nc2ccccn2)=C(O)c2ccccc2S1(=O)=O

>  <normalized growth>
0.99

$$$$
>  <COMPOUND>
CC(C(=O)O)c1ccc(C(=O)c2cccs2)cc1 (stereo not drawn)

>  <normalized growth>
1.01

$$$$

IN: normalized growth lookup needed for Oc1ccc2c(c1)OCC1c3cc4c(cc3OC21)OCO4 (stereo not drawn) , thanks.
OUT: 0.999

IN: normalized growth lookup needed for `Oc1ccc(Cl)cc1` , thanks.
OUT: 0.992

IN: normalized growth lookup needed for `COc1ccc(CCN2CCC(Nc3nc4ccccc4n3Cc3ccc(F)cc3)CC2)cc1` , thanks.
OUT: 0.974

IN: normalized growth lookup needed for `CCOC(=O)[C@H](CCc1ccccc1)N[C@@H](C)C(=O)N1[C@H](C(=O)O)C[C@@H]2CCC[C@@H]21` , thanks.
OUT: 1.01

IN: normalized growth lookup needed for CCC(C)c1cnc(CC(C)C)c(=O)n1O (stereo not drawn) , thanks.
OUT: 0.994

IN: normalized growth lookup needed for `CC(C)(C)CC(C)(C)c1ccc(O)c(Cc2ccc(Cl)cc2Cl)c1` , thanks.
OUT: 1.01

IN: normalized growth lookup needed for `Clc1cccc(Cl)c1NC1=NCCN1` , thanks.
OUT: 1.01

IN: normalized growth lookup needed for COC(=O)C(O)c1ccccc1 (stereo not drawn) , thanks.
OUT: 1.02

====

As shown below, each of these molecules has a reported normalized growth value.
# EXPERIMENT_NOTES: chemical genetic growth profiling, strain panel (AID 1159580);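 note: tested at 20 µM; growth read once vehicle control cultures reached saturation at 30 °C; 1 = growth at the plate median or of vehicle wells; lower values mean less growth of the strain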
# MEASUREMENT_SETUP: S. cerevisiae deletion strains, growth OD, locus YDR069C, strain doa4, hits give low values
In all, about 5,500 compounds went through this assay and about 2,000 (36%) were called active. Inconclusive results (about 18%) are left out. This is one part of the list.
# output: bare number, no unit

Sample records with normalized growth:
>  <MOLECULE>
Cc1cccc(Nc2ccccc2C(=O)O)c1C

>  <normalized growth>
0.988

$$$$
>  <MOLECULE>
CCOC(=O)c1ccc(O)cc1

>  <normalized growth>
1.02

$$$$
>  <MOLECULE>
CC1OC1P(=O)(O)O (centres undefined)

>  <normalized growth>
0.986

$$$$
>  <MOLECULE>
Nc1nc2ncc(=O)[nH]c2c(=O)[nH]1

>  <normalized growth>
1.01

$$$$
>  <MOLECULE>
C=CC(N)CCC(=O)O (centres undefined)

>  <normalized growth>
0.992

$$$$

IN: normalized growth lookup needed for CCCCCCCCCCCCCCCC(=O)OC1C(SC)OC(C(NC(=O)C2CC(CCC)CN2C)C(C)Cl)C(O)C1O (centres undefined) , thanks.
OUT: 0.975

IN: normalized growth lookup needed for O=C(C1CCCCC1)N1CC(=O)N2CCc3ccccc3C2C1 (centres undefined) , thanks.
OUT: 0.978

IN: normalized growth lookup needed for CC(=O)OCC(OC(C)=O)C(OC(C)=O)C(OC(C)=O)C(OC(C)=O)C(COC(C)=O)OC(C)=O (centres undefined) , thanks.
OUT: 0.986

IN: normalized growth lookup needed for NS(=O)(=O)c1cc2c(cc1Cl)NC(C(Cl)Cl)NS2(=O)=O (centres undefined) , thanks.
OUT: 0.989

IN: normalized growth lookup needed for `O=C(O)CN1C(=O)c2cccc3cccc(c23)C1=O` , thanks.
OUT: 0.993

====

As shown below, each of these compounds has a reported normalized growth value.
# EXPERIMENT_NOTES: chemical genetic growth profiling, strain panel (AID 1159580);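 note: tested at 20 µM; growth read once vehicle control cultures reached saturation at 30 °C; 1 = growth at the plate median or of vehicle wells; lower values mean less growth of the strain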
# MEASUREMENT_SETUP: S. cerevisiae deletion strains, growth OD, locus YJL095W, strain BCK1 (second series), hits give low values
Among all 5,500 compounds or so, about 2,000 (36%) were called active. Not shown: some 18% with an inconclusive outcome. The list shows a part of the results.
# output: bare number, no unit

Sample records with normalized growth:
>  <COMPOUND>
COC(=O)C[C@H]1C(C)(C)C(=O)[C@@H]2CC3=C(CC[C@]4(C)C3=CC(=O)O[C@H]4c3ccoc3)[C@@]1(C)C2=O

>  <normalized growth>
0.99

$$$$
>  <COMPOUND>
O=C(O)c1ccccc1-c1c2cc(Br)c(=O)cc-2oc2[c]([Hg])c(O)c(Br)cc12

>  <normalized growth>
1.03

$$$$
>  <COMPOUND>
CC(C)NCC(O)COc1cccc2ccccc12 (configuration not stated)

>  <normalized growth>
1

$$$$
>  <COMPOUND>
CCCCCCOc1ccccc1C(N)=O

>  <normalized growth>
0.704

$$$$
>  <COMPOUND>
C=C1CCC(C2CC(=O)OC2=O)C(=O)CCC2C1CC2(C)C (configuration not stated)

>  <normalized growth>
1

$$$$

IN: normalized growth lookup needed for `CC(=O)OCC[C@H](C)CCC=C(C)C` , thanks.
OUT: 0.99

IN: normalized growth lookup needed for `O=c1cc(-c2ccccc2O)oc2cc(O)ccc12` , thanks.
OUT: 0.994

IN: normalized growth lookup needed for `O=C(O)CN1C(=O)c2cccc3cccc(c23)C1=O` , thanks.
OUT: 0.986

IN: normalized growth lookup needed for `O=C1OC2(c3ccc(O)cc3Oc3cc(O)ccc32)c2ccccc21` , thanks.
OUT: 1.01

IN: normalized growth lookup needed for `C[C@H]1COC2=C1C(=O)C(=O)c1c2ccc2c1CCCC2(C)C` , thanks.
OUT: 0.408

IN: normalized growth lookup needed for `O=C1NC(=O)C(=O)C(=O)N1` , thanks.
OUT: 1

IN: normalized growth lookup needed for CC(C)COCC(CN(Cc1ccccc1)c1ccccc1)N1CCCC1 (configuration not stated) , thanks.
OUT: 1
